Test system: ovarian cells with null p53 (SKOV3)
Test: Antiproliferation, 72 h, media with 10% FBS
Format: cell-based
Conditions: SKOV3, 72 h, read-out: ED50 (μM) for antiproliferation
readoutName: EC50 (µM)
Respond with the bare value in µM.

Q: Which EC50 is listed for CN1C(=O)C(Cc2ccc3ccccc3c2)N=C(c2ccc(O)cc2)c2cc(Cl)ccc21 (stereo not shown) [Bz-423] ?
Result: 18.2

---

System: neuroblastoma cell line IMR-32
Experiment: Antiproliferation, 72 h, media with 10% FBS
Assay type: cell-based
Conditions: IMR-32, 72 h, read-out: ED50 (μM) for antiproliferation
readoutName: EC50 (µM)
Respond with the bare value in µM.

Q: Which EC50 is listed for CN1C(=O)C(Cc2ccc3ccccc3c2)N=C(c2ccc(O)cc2)c2cc(Cl)ccc21 (stereo not shown) ?
Result: 18
